# subject of test: Human orexin receptor type 2 (Homo sapiens, UniProt O43614)
# Sequence (O43614 whole entry): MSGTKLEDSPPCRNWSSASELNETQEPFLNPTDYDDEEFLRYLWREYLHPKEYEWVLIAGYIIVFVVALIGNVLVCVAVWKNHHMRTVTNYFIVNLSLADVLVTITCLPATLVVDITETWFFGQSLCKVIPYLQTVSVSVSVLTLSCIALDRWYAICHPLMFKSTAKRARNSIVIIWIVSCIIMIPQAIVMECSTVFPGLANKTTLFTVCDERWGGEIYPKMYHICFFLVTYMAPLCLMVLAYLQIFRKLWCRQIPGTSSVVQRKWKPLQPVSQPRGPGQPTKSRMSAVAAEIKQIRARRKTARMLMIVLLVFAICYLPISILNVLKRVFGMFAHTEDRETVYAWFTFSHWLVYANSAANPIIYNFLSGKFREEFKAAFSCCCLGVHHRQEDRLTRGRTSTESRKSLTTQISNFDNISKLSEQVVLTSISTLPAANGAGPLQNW
# assay summary: Test Example 1: agonist activity for orexin receptor type 2 (aequorin luminescence, intracellular calcium mobilization)
# conditions used: compound 10 μm; CHO cells transiently expressing human orexin receptor type 2 and apoaequorin; relative percentage of luminescence for the luminescence (100%) of Orexin A (100 μM)
readout name: Agonist Activity (%)
// units = %; emit number, no label

Examples from the recorded data:
- compound: "CC(C)N1CCN(c2cccc(F)c2NC(=O)N2C3CCC2CC(c2nc(C4CC4)no2)C3)CC1 (centres unmarked)"
  subject of test: "Human orexin receptor type 2 (Homo sapiens, UniProt O43614)"
  readout name: "Agonist Activity (%)"
  reported value: 30
- compound: "CC(CF)N1CC=C(c2cccc(Cl)c2NC(=O)N2CCC(C)(c3cc(C4CC4)on3)CC2)CC1 (centres unmarked)"
  subject of test: "Human orexin receptor type 2 (Homo sapiens, UniProt O43614)"
  readout name: "Agonist Activity (%)"
  reported value: 121

Q. Specify Agonist Activity (%) for Cc1ccc(C2CCN(C(=O)Nc3c(N4CCN(C(C)C)CC4)cccc3C(F)(F)F)CC2)cc1 , system Human orexin receptor type 2 (Homo sapiens, UniProt O43614).
A. 161

Q. Name the value of Agonist Activity (%) reported for CC(C)N1CCN(c2cccc(Cl)c2NC(=O)N2CCC(C)(c3noc([C@H]4C[C@H]4C)n3)CC2)CC1 when tested on Human orexin receptor type 2 (Homo sapiens, UniProt O43614).
A. 158
